Biological target: recombinant human AMCase (Homo sapiens (Human), UniProt Q9BZP6)
Sequence (Q9BZP6 22-476): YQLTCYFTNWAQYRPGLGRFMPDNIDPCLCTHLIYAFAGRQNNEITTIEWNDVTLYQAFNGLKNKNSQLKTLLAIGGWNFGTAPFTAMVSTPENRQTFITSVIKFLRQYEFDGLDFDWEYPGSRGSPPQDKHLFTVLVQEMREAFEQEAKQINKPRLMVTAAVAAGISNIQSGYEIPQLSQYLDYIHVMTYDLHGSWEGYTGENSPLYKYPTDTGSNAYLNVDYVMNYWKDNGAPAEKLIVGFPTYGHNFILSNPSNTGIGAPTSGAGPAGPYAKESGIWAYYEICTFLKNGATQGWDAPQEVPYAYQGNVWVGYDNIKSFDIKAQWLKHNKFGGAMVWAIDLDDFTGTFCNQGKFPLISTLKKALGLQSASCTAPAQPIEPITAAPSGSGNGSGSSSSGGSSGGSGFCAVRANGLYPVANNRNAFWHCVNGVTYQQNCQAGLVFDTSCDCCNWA
Experiment: Human AMCase Activity Assay
Format: biochemical
Details: citrate buffer pH 5.2, 37° C., 60 minutes, read-out: Activity on hAMCase, IC50
Would you mind telling me the reported IC50 of each entry?

Compound	IC50
CN1C[C@H](Cc2ccc(Cl)cc2)N(C2CCN(c3nnc(N)[nH]3)CC2)C[C@@H]1Cc1ccc(Cl)cc1 [Example 31]	< 100 nM
CC(C)C[C@H]1CN(C2CCN(c3nnc(N)[nH]3)CC2)[C@@H](Cc2ccc(Cl)cc2)CN1C [Example 33]	< 100 nM

Now examine the next entry.
Any idea what IC50 was measured for CN1C[C@H](Cc2ccc(Cl)cc2)N(C2CCN(c3nnc(N)[nH]3)CC2)C[C@@H]1CC1CCCCC1 [Example 32] ?
< 100 nM

====

Biological target: recombinant human CHIT1 (Homo sapiens (Human), UniProt Q13231)
Sequence (Q13231 22-466): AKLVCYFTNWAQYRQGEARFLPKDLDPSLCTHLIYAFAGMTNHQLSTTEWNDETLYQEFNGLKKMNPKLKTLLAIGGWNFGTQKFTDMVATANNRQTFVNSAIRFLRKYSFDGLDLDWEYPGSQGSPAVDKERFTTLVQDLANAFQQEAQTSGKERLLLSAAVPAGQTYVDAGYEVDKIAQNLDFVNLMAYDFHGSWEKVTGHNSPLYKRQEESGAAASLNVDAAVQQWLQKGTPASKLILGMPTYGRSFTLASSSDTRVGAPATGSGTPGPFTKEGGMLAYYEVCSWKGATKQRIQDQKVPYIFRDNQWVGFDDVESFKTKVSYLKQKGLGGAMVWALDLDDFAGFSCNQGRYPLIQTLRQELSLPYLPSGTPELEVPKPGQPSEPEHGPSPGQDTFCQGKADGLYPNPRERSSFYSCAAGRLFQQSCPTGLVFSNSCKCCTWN
Experiment: Human CHIT1 Activity Assay
Conditions: recombinant human CHIT1, citrate buffer pH 5.2, 37° C., 60 minutes; read-out: Activity on hCHIT1, IC50
pIC50: −log10 of the molar value.
Please provide measured pIC50 for the entries that follow.

Use the examples below as a reference point.
Molecule	pIC50
C[C@H]1CN(C2CCN(c3nnc(N)[nH]3)CC2)[C@@H](Cc2ccc(Cl)cc2)C(C)(C)O1 [Example 53]	4.00 to 5.00
C[C@H]1CN(C2CCN(c3nnc(N)[nH]3)CC2)[C@@H](Cc2ccc(Cl)cc2)CN1S(C)(=O)=O [Example 37]	4.00 to 5.00

Hey, quick one: what's pIC50 for each of these?
1. COC(C)(C)[C@H]1CN(C2CCN(c3nnc(N)[nH]3)CC2)[C@@H](Cc2ccc(Cl)cc2)CO1 [Example 14]
2. COC(=O)N1C[C@H](Cc2ccc(Cl)cc2)N(C2CCN(c3nnc(N)[nH]3)CC2)C[C@@H]1C [Example 39]
3. COC(=O)CN1C[C@H](Cc2ccc(Cl)cc2)N(C2CCN(c3nnc(N)[nH]3)CC2)C[C@@H]1C [Example 40]

> 7.00
4.00 to 5.00
6.00 to 7.00

Hello, the source for this data is patent US10538508B2, in case you need it.
